assay: Storage stability of drug substance with open package (HPLC purity, XRPD form, appearance); format: physicochemical; details: Initial
measured.attribute: Form

| molecule | recorded.result |
| --- | --- |
| CN[C@@H](C)C(=O)N[C@H]1CN(C(=O)CC(C)C)CC[C@H]2CC[C@@H](C(=O)NC(c3ccccc3)c3ccccc3)N2C1=O.O=C(O)C(F)(F)F [Prior art Solid B, reference compound] | Amorphous |
| CN[C@@H](C)C(=O)N[C@H]1CN(C(=O)CC(C)C)CC[C@H]2CC[C@@H](C(=O)NC(c3ccccc3)c3ccccc3)N2C1=O.Cl [Prior art Solid A, reference compound] | Amorphous |

---

assay: Humidity stability test with DVS analyzer; assay type: physicochemical; conditions: DVS 0% RH-95% RH

| compound | Appearance after test |
| --- | --- |
| CN[C@@H](C)C(=O)N[C@H]1CN(C(=O)CC(C)C)CC[C@H]2CC[C@@H](C(=O)NC(c3ccccc3)c3ccccc3)N2C1=O.Cl [Prior art Solid A, reference compound] | Transparent solid |
| CN[C@@H](C)C(=O)N[C@H]1CN(C(=O)CC(C)C)CC[C@H]2CC[C@@H](C(=O)NC(c3ccccc3)c3ccccc3)N2C1=O.O=C(O)C(F)(F)F [Prior art Solid B, reference compound] | Transparent solid |
| CN[C@@H](C)C(=O)N[C@H]1CN(C(=O)CC(C)C)CC[C@H]2CC[C@@H](C(=O)NC(c3ccccc3)c3ccccc3)N2C1=O [Form CSII] | Powder |
| CN[C@@H](C)C(=O)N[C@H]1CN(C(=O)CC(C)C)CC[C@H]2CC[C@@H](C(=O)NC(c3ccccc3)c3ccccc3)N2C1=O [Form CSI] | Powder |

Each recorded value in this set is attributed to patent US12162885B2.
